Test system: LN229 (human glioma cells)
Assay: CCK-8 cytotoxic assay, LN229
Format: cell-based
Conditions: LN-229, LN229 cells, CCK-8, 24 h, read-out: IC50 ± SD, LN229
QUANTITY: IC50

[Q] Reported IC50 for LN229 (human glioma cells), given Cc1c(CCC(C)COC2OC(CO)C(O)C(O)C2O)ccc2c1C1(C)CCC3C(CC=C4CC(OC5OC(CO)C(OC6OC(CO)C(O)C6O)C(O)C5OC5OC(C)C(O)C(O)C5O)CCC43C)C1C2 (stereo not shown) ?
[A] > 50 µM

[Q] Reported IC50 for LN229 (human glioma cells), given C=C1C(=O)OC2CC3C4CC=C5CC(OC6OC(CO)C(OC7OC(CO)C(O)C7O)C(O)C6OC6OC(C)C(O)C(O)C6O)CCC5(C)C4CCC3(C)C12 (stereo not shown) ?
[A] > 50 µM

[Q] Reported IC50 for LN229 (human glioma cells), given CC1CCC2(OC1)OC1CC3C4CC=C5CC(OC6OC(COC7(CO)OC(CO)C(O)C7O)C(O)C(O)C6OC6OC(C)C(O)C(O)C6O)CCC5(C)C4CCC3(C)C1C2C (stereo not shown) ?
[A] 4.18 µM

[Q] Reported IC50 for LN229 (human glioma cells), given C=C1C(=O)OC2CC3C4CC=C5CC(OC6OC(CO)C(OC7OC(C)C(O)C(O)C7O)C(O)C6OC6OC(C)C(O)C(O)C6O)CCC5(C)C4CCC3(C)C12 (stereo not shown) [Compound 5, chonglouoside SL-8] ?
[A] > 50 µM

----------
System: NHA (normal human astrocytes)
Experiment: CCK-8 cytotoxic assay, NHA normal astrocytes
Assay type: cell-based
Conditions: Homo sapiens, Astrocyte, 24 h, read-out: IC50 ± SD, NHA
Excerpt: U251 (human glioma cells), HeLa (human cervical cancer cells), and HepG2 (human hepatic cancer cells) were purchased from the Chinese Academy of Sciences (China), and Capan-2 (human pancreatic cancer cells) were obtained from Nanjing Cobioer Biosicences (Nanjing, China). American Type Culture Collection (ATCC) provided LN229 (human glioma cells). […]
pIC50: −log10 of the molar value.
QUANTITY: pIC50

[Q] Need pIC50, item C=C1C(=O)OC2CC3C4CC=C5CC(OC6OC(CO)C(O)C(O)C6OC6OC(C)C(O)C(O)C6O)CCC5(C)C4CCC3(C)C12 (stereo not shown) [Compound 6, pallidifloside D]
[A] < 4.30

----------
Test system: LN229 (human glioma cells)
Experiment: CCK-8 cytotoxic assay, LN229
Assay type: cell-based
Details: LN-229, LN229 cells, CCK-8, 24 h, read-out: IC50 ± SD, LN229
pIC50: −log10 of the molar value.
QUANTITY: pIC50

[Q] Need pIC50, item CC(=O)C1=CC[C@H]2[C@@H]3CC=C4C[C@@H](O[C@@H]5O[C@H](CO)[C@@H](O[C@@H]6O[C@@H](C)[C@H](O)[C@@H](O)[C@H]6O)[C@H](O)[C@H]5O[C@@H]5O[C@@H](C)[C@H](O)[C@@H](O)[C@H]5O)CC[C@]4(C)[C@H]3CC[C@]12C
[A] < 4.30

[Q] Need pIC50, item CC(=O)C1=CCC2C3CC=C4C[C@@H](O[C@@H]5O[C@H](CO)[C@@H](O[C@@H]6O[C@@H](CO)[C@H](O)[C@H]6O)[C@H](O)[C@H]5O[C@@H]5O[C@@H](C)[C@H](O)[C@@H](O)[C@H]5O)CC[C@]4(C)C3CC[C@]12C (some centres unmarked)
[A] < 4.30
